# measuredOn: human ether-à-go-go-related gene (hERG) potassium channel (human)
# Sequence (Q12809 whole entry, looked up): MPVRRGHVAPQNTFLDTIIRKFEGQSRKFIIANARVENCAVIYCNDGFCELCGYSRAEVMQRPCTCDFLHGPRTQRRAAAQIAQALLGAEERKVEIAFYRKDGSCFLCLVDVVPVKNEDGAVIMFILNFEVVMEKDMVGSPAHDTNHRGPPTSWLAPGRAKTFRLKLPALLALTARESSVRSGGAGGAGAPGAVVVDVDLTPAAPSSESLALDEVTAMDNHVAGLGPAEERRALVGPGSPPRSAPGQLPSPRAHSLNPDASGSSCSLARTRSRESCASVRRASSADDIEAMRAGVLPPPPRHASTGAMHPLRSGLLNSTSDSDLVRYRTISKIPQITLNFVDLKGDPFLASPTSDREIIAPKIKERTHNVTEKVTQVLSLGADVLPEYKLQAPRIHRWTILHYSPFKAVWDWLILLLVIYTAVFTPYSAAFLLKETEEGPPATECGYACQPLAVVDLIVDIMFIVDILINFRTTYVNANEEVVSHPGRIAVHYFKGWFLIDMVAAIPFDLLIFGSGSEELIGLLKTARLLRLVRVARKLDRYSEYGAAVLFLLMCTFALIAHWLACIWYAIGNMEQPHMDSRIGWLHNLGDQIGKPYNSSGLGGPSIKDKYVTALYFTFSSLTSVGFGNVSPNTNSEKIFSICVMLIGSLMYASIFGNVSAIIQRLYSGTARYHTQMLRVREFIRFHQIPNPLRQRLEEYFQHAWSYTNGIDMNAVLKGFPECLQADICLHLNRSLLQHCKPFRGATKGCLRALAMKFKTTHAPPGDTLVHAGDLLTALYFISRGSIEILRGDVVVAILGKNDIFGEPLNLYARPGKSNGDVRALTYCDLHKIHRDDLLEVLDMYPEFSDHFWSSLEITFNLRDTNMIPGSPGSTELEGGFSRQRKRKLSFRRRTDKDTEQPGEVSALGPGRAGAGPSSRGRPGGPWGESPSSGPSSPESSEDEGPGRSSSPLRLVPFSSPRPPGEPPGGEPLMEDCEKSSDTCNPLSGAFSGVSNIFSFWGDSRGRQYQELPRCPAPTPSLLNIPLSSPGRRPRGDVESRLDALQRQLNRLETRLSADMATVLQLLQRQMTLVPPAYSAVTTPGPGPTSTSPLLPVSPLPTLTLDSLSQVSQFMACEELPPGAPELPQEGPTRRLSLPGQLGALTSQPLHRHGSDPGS
# testMethodNotes: primary screen, population patch clamp on CHO cells stably expressing hERG; higher = less effect of the substance;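 further: peak tail current of the secondary pulse compared with the same well before compound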
# Description: Briefly, Chinese hamster ovary (CHO) cells stably expressing the hERG channel were dislodged from tissue culture flasks and dispensed into PPC plates. […] During the recording, background leak currents were estimated by a 100 ms step to -80 mV from an initial holding potential of -70 mV and subtracted from the subsequent current measurement. The campaign was conducted in two phases using slight differences in recording protocol. […]
Out of some 310,000 compounds screened, about 14,000 (4.5%) showed an effect of 50% or more. The effect is printed as a negative number. The entries come from a sample that favours strong results as a whole.
reportedEndpoint: hERG current change (%, negative = inhibition) at 10uM (%)
Give the value in % but do not write % after it.

{"compound": "Nc1nc2c(nc(SCc3ccccc3Br)n2C2OC(CO)C(O)C2O)c(=O)[nH]1 (centres unmarked)", "val": 34.9}
{"compound": "Cc1cc[n+](CC[n+]2ccc(C)cc2)cc1.[Br-]", "val": 16.7}
{"compound": "N#Cc1c(NC(=O)CSc2nc(-c3ccco3)cc(C(F)(F)F)n2)sc2c1CCCC2", "val": 12.3}
{"compound": "O=C(C1COc2ccccc2O1)N1CCN(c2ccccc2Cl)CC1 (centres unmarked)", "val": 1.69}
{"compound": "Cc1ccc2c(CC(=O)Nc3c(C)n(C)n(-c4ccccc4)c3=O)coc2c1", "val": -7.21}
{"compound": "Cc1ccc(-c2noc(C3CCCN(C(=O)c4ccc(C(C)(C)C)cc4)C3)n2)o1 (centres unmarked)", "val": -19.8}

IN: Item Cc1cc(O)c2c(C)c(CC(=O)N3CCN(C(=O)C4COc5ccccc5O4)CC3)c(=O)oc2c1 (centres unmarked) has what recorded hERG current change (%, negative = inhibition) at 10uM?
OUT: -28

IN: And then COCCCNC(=O)c1ccc(Cn2c(=O)c3ccccc3n(CC(=O)NCc3ccco3)c2=O)cc1 , what is it?
OUT: 6.71

IN: And then O=C(CCc1ccccc1O)N/N=C/c1ccc(Sc2cccc3cccnc23)o1 , what is it?
OUT: 21.8

IN: And then CCOc1ccccc1NC(=O)N1CCCC(c2nc(-c3ccc(C)o3)no2)C1 (centres unmarked) , what is it?
OUT: -52.5

----------
Each item that follows carries a reported hERG current change (%, negative = inhibition) at 10uM.
# measuredOn: human ether-à-go-go-related gene (hERG) potassium channel (human)
# testMethodNotes: primary screen, population patch clamp on CHO cells stably expressing hERG; higher = less effect of the substance
Screen size: about 310,000 compounds; about 14,000 (4.5%) showed an effect of 50% or more. Effects have a minus sign here. The sample as a whole holds a higher share of strong results than the screen did.

{"molecule": "COc1ccc([C@H]2CC(=O)C=C(c3ccc(Cl)cc3C)C2)cc1", "val": "4.03%"}
{"molecule": "CC1(C(=O)NC2CCCCC2)CCC(=O)N1Cc1cccs1 (stereo not drawn)", "val": "-0.227%"}
{"molecule": "COC(=O)C(CC(C)C)NC(=O)CNC(=O)c1ccccc1C (stereo not drawn)", "val": "3.34%"}
{"molecule": "COc1ccc(S(=O)(=O)Nc2ccccc2C(=O)N2CCOCC2)cc1C", "val": "-0.937%"}
{"molecule": "Cc1ccc(NC(=O)CCCn2nc(C)c3c(C)n(-c4ccccc4)nc3c2=O)cc1C", "val": "24.6%"}

IN: Which hERG current change (%, negative = inhibition) at 10uM is reported with human ether-à-go-go-related gene (hERG) potassium channel (human) for this entry: O=C(COC(=O)c1cnccn1)NCc1ccc(Cl)cc1 ?
OUT: -3.54%

IN: And then C/C(Cl)=C\Cn1c(O)c(N=NC(N)=S)c2cc(Br)ccc21 , what is it?
OUT: 8.96%

IN: And then COCCn1c(C)nnc1SCC(=O)NNC(=O)c1ccc(Cl)cc1 , what is it?
OUT: 16.4%

IN: And then CC1CCC(C(C)C)C(OC(=O)COC(=O)c2ccc(=O)[nH]c2)C1 (stereo not drawn) , what is it?
OUT: -8.28%

IN: And then Cc1ccc(C(=O)N/C(=C\c2cccs2)C(=O)N2CCOCC2)cc1C , what is it?
OUT: -19%

IN: And then CCN(CC)N=Nc1ccc(S(=O)(=O)N2CCSC2C(=O)[O-])cc1.[K+] (stereo not drawn) , what is it?
OUT: 28.2%

IN: And then Cc1ccc(C(=O)N/C(=C\c2cccs2)C(=O)N2CCN(C)CC2)cc1C , what is it?
OUT: -70.6%

IN: And then CCCn1c2ccccc2c2cnn(CC(=O)NCCN(CC)CC)c(=O)c21 , what is it?
OUT: -66.6%

IN: And then Cc1cc(C)c(NC(=O)Cn2nnc(C(=O)NCc3cccs3)c2N)c(C)c1 , what is it?
OUT: 20%

IN: And then CC1CCC(C(C)C)C(OC(=O)CSc2n[nH]c(=O)[nH]c2=O)C1 (stereo not drawn) , what is it?
OUT: -19.9%

IN: And then Cl.O=C(CCN1CCCCCC1)Nc1cccc(F)c1 , what is it?
OUT: -23.6%

The values you see were collected from paper PMC4336329.
